Here, each record is paired with measured EC50 data.
molecular target: T1, amyloid peptide AβpE3-42 (UniProt P05067 674-713, N-terminal pyroglutamate (pE) at Aβ position 3); experiment: ELISA, plate coated with AβpE3-42 (target by legend paragraph 24), antibody titrated, A650nm
T1 construct: domain: AβpE3-42; Bought synthetic peptide; also called AβpGlu3-42; Aβ(Glp3)3-42
T1 sequence (P05067 674-713 limits assumed): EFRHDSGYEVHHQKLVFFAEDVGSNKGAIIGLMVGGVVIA
Express the result in µg/mL but write the number alone.

Please review the entries below; each comes with its answer.
murine NT4X-167 antibody (antibody, V domains shown, Mouse hybridoma antibody; also called original mouse NT4X antibody) VH: QVQLKQSGPGLVQPSQSLSITCTVSGFSLTSYGIHWVRQSPGKGLEWLGVMWSGGITDFYAAFISRLSISRDISKSQVFFKMNSLQADDTAIYYCARGSRYALDYWGQGTSVSVSS VL: DIQMTQTTSSLSASLGDRVTISCRASQDISNYLNWYQQKPDGTVKLLIYYTSRLHSGVPSRFSGSGSGTDYSLTISNLEQEDIATYFCQQGNTLPPTFGGGTKLEIK :: 2.4
humanized NT4X-167 RHB/RKB (antibody, mouse IgG1, V domains shown, also called HB/KB) VH: QVQLQESGPGLVKPSETLSLTCTVSGFSLTSYGIHWIRQPPGKGLEWLGVMWSGGITDFYAAFISRLTISRDTSKNQVSLKMSSVTAADTAVYYCARGSRYALDYWGQGTLVTVSS VL: DIQMTQSPSSLSASVGDRVTITCRASQDISNYLNWYQQKPGGAPKLLIYYTSRLHSGVPSRFSGSGSGTDYTLTISSLQPEDFATYFCQQGNTLPPTFGGGTKLEIK :: 2.74
humanized NT4X-167 RHB/RKA (antibody, mouse IgG1, V domains shown, also called BA) VH: QVQLQESGPGLVKPSETLSLTCTVSGFSLTSYGIHWIRQPPGKGLEWLGVMWSGGITDFYAAFISRLTISRDTSKNQVSLKMSSVTAADTAVYYCARGSRYALDYWGQGTLVTVSS VL: DIQMTQSPSSLSASVGDRVTITCRASQDISNYLNWYQQKPGKAPKLLIYYTSRLHSGVPSRFSGSGSGTDFTLTISSLQPEDFATYYCQQGNTLPPTFGGGTKLEIK :: 3.86

Could you now look at the following binder, please?
Suppose we examine the binder chimeric NT4X-167 antibody (antibody, V domains shown, also called chimeric positive control antibody) VH: QVQLKQSGPGLVQPSQSLSITCTVSGFSLTSYGIHWVRQSPGKGLEWLGVMWSGGITDFYAAFISRLSISRDISKSQVFFKMNSLQADDTAIYYCARGSRYALDYWGQGTSVSVSS VL: DIQMTQTTSSLSASLGDRVTISCRASQDISNYLNWYQQKPDGTVKLLIYYTSRLHSGVPSRFSGSGSGTDYSLTISNLEQEDIATYFCQQGNTLPPTFGGGTKLEIK ; what EC50 value has been reported?
0.227
